Test system: S. pneumoniae D39V;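 also: first quartile when negative (synergy) and third quartile when positive (antagonism)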
ASSAY_INFO: Bliss interaction score (quartile over a dose matrix) (fitness difference); higher = more antagonism (negative = synergy)
The compounds listed here are annotated with their Bliss interaction score.
No unit in the answer, only the number.

Before answering, review these 5 worked examples.
- CC(=O)NC[C@H]1CN(c2ccc(N3CCOCC3)c(F)c2)C(=O)O1 [Linezolid] + COc1c(N2C[C@@H]3CCCN[C@@H]3C2)c(F)cc2c(=O)c(C(=O)O)cn(C3CC3)c12 [Moxifloxacin]: 0.0972
- CN[C@H](CC(C)C)C(=O)N[C@H]1C(=O)N[C@@H](CC(N)=O)C(=O)N[C@H]2C(=O)N[C@H]3C(=O)N[C@H](C(=O)N[C@H](C(=O)O)c4cc(O)cc(O)c4-c4cc3ccc4O)[C@H](O[C@H]3C[C@](C)(N)[C@@H](O)[C@H](C)O3)c3ccc(c(Cl)c3)Oc3cc2cc(c3O[C@@H]2O[C@H](CO)[C@@H](O)[C@H](O)[C@H]2O[C@H]2C[C@](C)(NCc3ccc(-c4ccc(Cl)cc4)cc3)[C@@H](O)[C@H](C)O2)Oc2ccc(cc2Cl)[C@H]1O [Oritavancin] + Cn1nnc(-c2ccc(-c3ccc(N4C[C@H](CO)OC4=O)cc3F)cn2)n1 [Tedizolid]: -0.0205
- CO[C@@H]1[C@@H](OC(N)=O)[C@@H](O)[C@H](Oc2ccc3c(O)c(NC(=O)c4ccc(O)c(CC=C(C)C)c4)c(=O)oc3c2C)OC1(C)C [Novobiocin] + CN[C@@H]1[C@H](O)[C@H](NC)[C@H]2O[C@@]3(O)C(=O)C[C@@H](C)O[C@H]3O[C@@H]2[C@H]1O [Spectinomycin]: -0.0939
- CN[C@@H]1[C@H](O[C@H]2[C@H](O[C@H]3[C@H](O)[C@@H](O)[C@H](N=C(N)N)[C@@H](O)[C@@H]3N=C(N)N)O[C@@H](C)[C@]2(O)C=O)O[C@@H](CO)[C@H](O)[C@H]1O [Streptomycin] + CC1=C\[C@@H](O)CC(=O)Cc2nc(co2)C(=O)N2CCC=C2C(=O)O[C@H](C(C)C)[C@H](C)/C=C/C(=O)NC\C=C\1 [Virginiamycin M1]: 0.0533
- CO[C@@]12[C@H](COC(N)=O)C3=C(C(=O)C(C)=C(N)C3=O)N1C[C@@H]1N[C@@H]12 [MitomycinC] + CN[C@@H]1[C@H](O[C@H]2[C@H](O[C@H]3[C@H](O)[C@@H](O)[C@H](N=C(N)N)[C@@H](O)[C@@H]3N=C(N)N)O[C@@H](C)[C@]2(O)C=O)O[C@@H](CO)[C@H](O)[C@H]1O [Streptomycin]: -0.072

(Q) // Input: CN[C@@H]1[C@H](O)[C@H](NC)[C@H]2O[C@@]3(O)C(=O)C[C@@H](C)O[C@H]3O[C@@H]2[C@H]1O [Spectinomycin] + Oc1cc(Cl)ccc1Oc1ccc(Cl)cc1Cl [Triclosan] . Output its Bliss interaction score only.
(A) 0.0557

(Q) // Input: CO[C@@]12[C@H](COC(N)=O)C3=C(C(=O)C(C)=C(N)C3=O)N1C[C@@H]1N[C@@H]12 [MitomycinC] + C[n+]1ccc(-c2cc[n+](C)cc2)cc1 [Paraquat] . Output its Bliss interaction score only.
(A) -0.0446

(Q) // Input: CC(=O)NC[C@H]1CN(c2ccc(N3CCOCC3)c(F)c2)C(=O)O1 [Linezolid] + CN[C@@H]1[C@H](O)[C@H](NC)[C@H]2O[C@@]3(O)C(=O)C[C@@H](C)O[C@H]3O[C@@H]2[C@H]1O [Spectinomycin] . Output its Bliss interaction score only.
(A) -0.134

(Q) // Input: CC(=O)NC[C@H]1CN(c2ccc(N3CCOCC3)c(F)c2)C(=O)O1 [Linezolid] + CN(N=O)C(=O)N[C@@H](C=O)[C@@H](O)[C@H](O)[C@H](O)CO [Streptozotocin] . Output its Bliss interaction score only.
(A) -0.115

(Q) // Input: CO[C@@]12[C@H](COC(N)=O)C3=C(C(=O)C(C)=C(N)C3=O)N1C[C@@H]1N[C@@H]12 [MitomycinC] + C/C(=C\C(=O)OCCCCCCCCC(=O)O)C[C@@H]1OC[C@H](C[C@@H]2O[C@H]2[C@@H](C)[C@H](C)O)[C@@H](O)[C@H]1O [Pseudomonic acid] . Output its Bliss interaction score only.
(A) -0.0895
